Kindly state collision cross section for each of the entries shown.
# TEST DETAILS: collision cross section (DTIM-MS, N2); higher = larger ion
# APPLIED CONDITIONS: ion adduct: [M+H]+
Write the numeric value and append its unit.

Could you tell me which collision cross section is on file for C[C@@]12CCC3[C@@](CC[C@@H]4[C@](C)(C(=O)O)CCC[C@@]34C)(CC1=O)C2 (stereo partly specified) ?
180.22 Å²

Could you tell me which collision cross section is on file for CC1(C)[C@@H](O[C@H]2O[C@H](C(=O)O)[C@@H](O)[C@H](O)[C@H]2OC2O[C@H](C(=O)O)[C@@H](O)[C@H](O)[C@H]2O)CC[C@]2(C)[C@H]3C(=O)C=C4[C@@H]5C[C@@](C)(C(=O)O)CC[C@]5(C)CC[C@@]4(C)[C@]3(C)CC[C@@H]12 (stereo partly specified) ?
287.67 Å²

Could you tell me which collision cross section is on file for COc1cc(O)cc2c1C(=O)C[C@@H](c1ccccc1)O2 ?
160.76 Å²

Could you tell me which collision cross section is on file for C=C(C)[C@H]1Cc2c(ccc3c2O[C@@H]2COc4cc(OC)c(OC)cc4[C@@H]2C3=O)O1 ?
195.49 Å²

Could you tell me which collision cross section is on file for CC(C)C1=CC2=CC[C@@H]3[C@](C)(CCC[C@@]3(C)C(=O)O)[C@H]2CC1 ?
174.96 Å²

Could you tell me which collision cross section is on file for COc1cc([C@@H]2c3cc4c(cc3[C@@H](O[C@@H]3O[C@@H]5CO[C@@H](C)O[C@H]5[C@H](O)[C@H]3O)C3COC(=O)C32)OCO4)cc(OC)c1O (stereo partly specified) [Etoposide] ?
250.54 Å²

---

# TEST DETAILS: collision cross section (DTIM-MS, N2); higher = larger ion
# APPLIED CONDITIONS: ion adduct: [M-H]-
Label 1.0 when collision cross section >= 200 Å²; otherwise 0.0.

Assess whether reported collision cross section for COc1cc(O)cc(O)c1C(=O)/C=C/c1ccccc1 sits at 200 Å² or higher.
0.0

Assess whether reported collision cross section for C[C@@H]1C/C=C/C=C/C=C/C=C/[C@H](O[C@@H]2O[C@H](C)[C@@H](O)[C@H](N)[C@@H]2O)C[C@@H]2O[C@](O)(C[C@@H](O)C[C@H]3O[C@@H]3/C=C/C(=O)O1)C[C@H](O)[C@H]2C(=O)O sits at 200 Å² or higher.
1.0

Assess whether reported collision cross section for COc1cc(CCC(C)=O)ccc1O sits at 200 Å² or higher.
0.0

Assess whether reported collision cross section for Nc1ccn([C@@H]2O[C@H](CO)[C@@H](O)[C@@H]2O)c(=O)n1 sits at 200 Å² or higher.
0.0

Assess whether reported collision cross section for O=C(Nc1ccc(O)cc1)c1ccccc1O sits at 200 Å² or higher.
0.0

Assess whether reported collision cross section for O=C1CCc2ccccc2O1 [Hydrocoumarin] sits at 200 Å² or higher.
0.0

Assess whether reported collision cross section for OC[C@@H](O)[C@@H](O)[C@@H](O)[C@@H](O)CO sits at 200 Å² or higher.
0.0

Assess whether reported collision cross section for COc1cc(O)c2c(c1)oc(=O)c1c3cc(O)c(O)cc3oc21 sits at 200 Å² or higher.
0.0

Assess whether reported collision cross section for CNC(=O)Oc1cccc2ccccc12 sits at 200 Å² or higher.
0.0

Assess whether reported collision cross section for O=c1ccc2cc(O)ccc2o1 [6-Hydroxycoumarin] sits at 200 Å² or higher.
0.0

Assess whether reported collision cross section for COc1cc(C=CC(=O)NCCc2ccc(O)cc2)ccc1O [N-trans-Feruloyltyramine] sits at 200 Å² or higher.
0.0

Assess whether reported collision cross section for C[C@H]1O[C@@H](O[C@@H]2[C@@H](O)[C@H](O)[C@@H](CO)O[C@H]2c2c(O)cc(O)c3c(=O)cc(-c4ccc(O)cc4)oc23)[C@@H](O)[C@@H](O)[C@@H]1O [Vitexin-2''-O-rhamnoside] sits at 200 Å² or higher.
1.0

Assess whether reported collision cross section for COc1cc2c(cc1OC)C(Cc1ccc(Oc3cc(CC4c5cc(OC)c(OC)cc5CCN4C)ccc3O)cc1)N(C)CC2 (centres undefined) sits at 200 Å² or higher.
1.0

Assess whether reported collision cross section for O=C(O)c1ccccc1Nc1cccc(C(F)(F)F)c1 sits at 200 Å² or higher.
0.0

Assess whether reported collision cross section for O=c1c(-c2ccc(O)cc2)coc2cc(O[C@@H]3O[C@H](CO)[C@@H](O)[C@H](O)[C@H]3O)cc(O)c12 sits at 200 Å² or higher.
1.0

Assess whether reported collision cross section for O=c1cc(-c2ccc(O)c(O)c2)oc2cc(O[C@@H]3O[C@H](CO)[C@@H](O)[C@H](O)[C@H]3O)cc(O)c12 [Luteolin-7-O-glucoside] sits at 200 Å² or higher.
1.0

Assess whether reported collision cross section for Cc1cc(=O)oc2cc(O)c(O)cc12 [4-Methyl-6,7-dihydroxycoumarin] sits at 200 Å² or higher.
0.0

Assess whether reported collision cross section for Nc1nc(=S)c2[nH]cnc2[nH]1 sits at 200 Å² or higher.
0.0

Assess whether reported collision cross section for COc1ccc(CC2c3cc(Oc4cc(CC5c6cc(O)c(OC)cc6CCN5C)ccc4O)c(OC)cc3CCN2C)cc1 (centres undefined) sits at 200 Å² or higher.
1.0

Assess whether reported collision cross section for OC[C@@H](O)[C@@H](O[C@H]1O[C@H](CO)[C@@H](O)[C@H](O)[C@H]1O)[C@H](O)[C@@H](O)CO sits at 200 Å² or higher.
0.0

Assess whether reported collision cross section for O=C(O)C1=CO[C@@H](O[C@@H]2O[C@H](CO)[C@@H](O)[C@H](O)[C@H]2O)[C@@H]2C(CO)=CC[C@H]12 sits at 200 Å² or higher.
0.0

Assess whether reported collision cross section for CC(/C=C/C=C(\C)C(=O)O[C@@H]1O[C@H](CO[C@@H]2O[C@H](CO)[C@@H](O)[C@H](O)[C@H]2O)[C@@H](O)[C@H](O)[C@H]1O)=C\C=C\C=C(C)\C=C\C=C(/C)C(=O)O[C@@H]1O[C@H](CO[C@@H]2O[C@H](CO)[C@@H](O)[C@H](O)[C@H]2O)[C@@H](O)[C@H](O)[C@H]1O sits at 200 Å² or higher.
1.0

Assess whether reported collision cross section for COc1c(O)c(C)cc2c1C(=O)c1c(O)cccc1C2=O sits at 200 Å² or higher.
0.0
